Value source: PubChem BioAssay AID1671189

Molecular target: Polyunsaturated fatty acid lipoxygenase ALOX12 (Homo sapiens)
Test: Confirmatory qHTS assay for inhibitors of human arachidonate 12S-lipoxygenase (ALOX12): Round 2; further: potency means the concentration at half of the fitted maximal effect
Details: purified human 12-LOX, xylenol orange absorbance; series mostly up to 125 µM
Hit rate of the full screen: of about 1,100 compounds, about 70 (6%) were called active. Roughly 22% stayed inconclusive and do not appear here. The list comes from a sample in which actives are over-represented; it also holds close analogues and randomly drawn compounds.
ASSAY METRIC: Potency

Solved cases (5 shown):
>>> result("CN1CCC(C(=O)N2Cc3ccccc3OC3(CCN(C(=O)N(C)C)CC3)C2)CC1")
"inactive"
>>> result("COc1cccc([S+](=O)([O-])N2CC(Oc3ccc(F)c(F)c3)C2)c1")
"inactive"
>>> result("Cc1ccc(CN2CCC3(CC2)Cc2ccccc2CNC3=O)cc1C")
"inactive"
>>> result("CCCc1nc(C)cc(N2CCC(NCCc3ccc(Cl)cc3)CC2)n1")
"2.24 µM (active)"
>>> result("COc1cccc(CNc2ncnc3c2CN(C2CCCNCC2)C(=O)CN3C)c1 (stereo unspecified)")
"inactive"

Ask | If you can, please state the reported Potency value of CC(NC(=O)C1CCN(c2cc(C(F)(F)F)ncn2)CC1)c1ccccc1 (stereo unspecified) .
Reply | inactive

Ask | Next up: O=C(N1CCCC1)N1CCN(c2ccc(Cl)nn2)C(=O)C1
Reply | inactive

Ask | Next up: Cc1cc(C)cc(CN2CCC3(Cc4ccccc4CNC3=O)C2)c1 (stereo unspecified)
Reply | inactive

Ask | Next up: CCCCNc1oc(-c2cccc3ccccc23)nc1C#N
Reply | 19.3 µM (active)

Ask | Next up: Cc1nc(N2CCC(C(=O)NCc3ccc(C(C)C)cc3)CC2)cc(C(F)(F)F)n1
Reply | inactive

Ask | Next up: c1ccc(COCCCc2cnc[nH]2)cc1
Reply | inactive
